- System: Caco-2
- experiment description: cell viability relative to DMSO; higher = less toxic
- condition info: 72 h; 100 nM
parameter measured: cell viability (%)
Numeric answer only, unit % assumed.

molecule	unit abbreviation	meas value
CC(=O)NC[C@H]1CN(c2ccc(N3CCN(C(=O)CO)CC3)c(F)c2)C(=O)O1	%	102
C[C@H]1CCC/C=C/[C@@H]2C[C@H](O)C[C@H]2[C@H](O)/C=C/C(=O)O1	%	71.9
O=C1N=C(NCc2cccs2)S/C1=C\c1ccc2ncccc2c1	%	97.2

Alright, here's another molecule for you.
Exercise: Please supply the value of reported cell viability for the item CC(=O)N[C@H]1[C@@H](O)[C@H](O)[C@@H](CO)O[C@@H]1O
Solution: 100

---

- Tested on: A549-ACE2 infected with SARS-CoV-2
- experiment description: SARS-CoV-2 infection rate relative to DMSO; higher = more infection
- condition info: 0.3 µM; 24 h
parameter measured: SARS-CoV-2 infection rate (%)
Numeric answer only, unit % assumed.

compound	SARS-CoV-2 infection rate, %
CCOC(=O)C1=C(COCCN)NC(C)=C(C(=O)OC)C1c1ccccc1Cl (centres undefined)	107
Cc1ccc(NC(=O)Nc2cc(C(F)(F)F)ccc2F)cc1Nc1ccc2c(c1)NC(=O)/C2=C\c1ccc[nH]1	103
COc1cc2c(NC3CCN(C(C)C)CC3)nc(C3CCCCC3)nc2cc1OCCCN1CCCC1	92

Alright, here's another compound for you.
Exercise: Answer with SARS-CoV-2 infection rate of C=C1C(=O)O[C@@H]2[C@H]3C(C)=CC[C@@]34O[C@@]4(C)CC[C@@H]12 measured for A549-ACE2 infected with SARS-CoV-2.
Solution: 105

---

- System: Vero E6
- experiment description: cell viability relative to DMSO; higher = less toxic
- condition info: 72 h; 1 nM
# maps each entry to its cell viability
Numeric answer only, unit % assumed.

compound	system name	meas value
N#CN=C(NCCCCCCOc1ccc(Cl)cc1)Nc1ccncc1 [GMX1778]	Vero E6	98.3

Exercise: Please supply the value of reported cell viability for the item N=C(N)N/N=C/c1c(Cl)cccc1Cl [guanaben-acetate]
Solution: 95.3

---

# maps each entry to its cell viability
- System: Caco-2
- experiment description: cell viability relative to DMSO; higher = less toxic
- condition info: 72 h; 1000 nM
Numeric answer only, unit % assumed.

compound	system name	cell viability (%)
Cc1cccc(C)c1OCC(=O)N[C@@H](Cc1ccccc1)[C@@H](O)C[C@H](Cc1ccccc1)NC(=O)[C@H](C(C)C)N1CCCNC1=O [lopinavir]	Caco-2	93.9
C[N+]12CCCCC1CCC(=C(c1cccs1)c1cccs1)C2 (centres undefined) [tiquizium]	Caco-2	90.3
Cc1noc(C)c1-c1cc(O)cc([C@@H](O)c2ccccc2)c1 [OXF-BD-02]	Caco-2	92.5
N#C/C(=C\c1ccc(O)c(O)c1)C(=O)NCCCCc1ccccc1 [AG-556]	Caco-2	101
C[C@@H](CN(C)C)CN1c2ccccc2Sc2ccccc21 (racemic) [alimemazine]	Caco-2	108

Exercise: Please supply the value of reported cell viability for the item CC=C1C(=O)C[C@H]2[C@@H]3CCC4=CC(=O)CC[C@]4(C)[C@H]3CC[C@]12C [GR-235]
Solution: 90.3

Exercise: Please supply the value of reported cell viability for the item CCCN(CCc1cccs1)[C@H]1CCc2c(O)cccc2C1 [rotigotine]
Solution: 101

Exercise: Please supply the value of reported cell viability for the item COc1cccc(Nc2ncnn3ccc(CN4CC[C@@H](N)[C@H](O)C4)c23)c1
Solution: 76.1

Exercise: Please supply the value of reported cell viability for the item CCOc1cc(OCC)c(C(=O)CCC(=O)O)cc1OCC [trepibutone]
Solution: 101
